Target: Monoglyceride lipase (Rattus norvegicus)
Sequence (whole entry): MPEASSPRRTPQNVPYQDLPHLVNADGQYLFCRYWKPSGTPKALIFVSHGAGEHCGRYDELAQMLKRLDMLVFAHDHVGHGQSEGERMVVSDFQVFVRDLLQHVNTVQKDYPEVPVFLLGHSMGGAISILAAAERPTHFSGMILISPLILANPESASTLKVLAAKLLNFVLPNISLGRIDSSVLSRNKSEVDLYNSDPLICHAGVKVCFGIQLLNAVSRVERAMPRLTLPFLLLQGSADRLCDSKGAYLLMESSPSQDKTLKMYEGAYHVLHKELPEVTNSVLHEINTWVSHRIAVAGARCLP
Experiment: Inhibition of MGL in rat cerebellum cytosolic fractions assessed as [3H]2-oleoylglycerol hydrolysis
Format: tissue-based
metric name: pI50 (-log I50, M)
No unit in the answer, please; the number alone is enough.

Return pI50 (-log I50, M) (reported value) for this molecule: CCCCC/C=C\C/C=C\C/C=C\C/C=C\CCCC(=O)NCC1CCCO1 (centres undefined)
4.47

Supply measured pI50 (-log I50, M) of CCCCCC/C=C\CCCCCCCC(=O)OCC1CO1 (racemic) in your reply.
4.87

Supply measured pI50 (-log I50, M) of O=C(OCC1CCCCO1)c1ccccc1 (racemic) in your reply.
5.5

// Input: CCCCC/C=C\C/C=C\C/C=C\C/C=C\CCCC(=O)OCC1COC(C)(C)O1 (racemic) . Output its pI50 (-log I50, M) only.
4.3

Answer with the recorded pI50 (-log I50, M) for the molecule listed here: CCCCC/C=C\C/C=C\C/C=C\C/C=C\CCCC(=O)OC[C@@H]1CO1
5.1

Determine from records and report pI50 (-log I50, M) for CCCCC/C=C\C/C=C\C/C=C\C/C=C\CCCC(=O)OCc1ccc2c(c1)OCO2
4.35

Give the reported pI50 (-log I50, M) for this molecule. CCCCC/C=C\C/C=C\C/C=C\C/C=C\CCCC(=O)OCCC1OCC(C)(C)CO1
4.57
